# System: HIV-1 (HTLV-IIIB strain)
# ASSAY_DETAILS: Inhibitory activity for HIV-induced cytopathogenicity (MT-4 cells, MTT method)
# Type: cell-based
# TEST_SETTINGS: Human immunodeficiency virus 1, IIIB, MT4, 144 h, read-out: 50% inhibitory concentration of HIV infection
Field: IC50. Provide a value for each of the compounds that follow.
Could you kindly put the unit after your number?

Input line: State its IC50: CCOCn1c([Se]c2cc(F)cc(F)c2)c(CC)c(=O)[nH]c1=S [Compound 18]
Output line: 14 nM

Input line: Please look at this compound and report its IC50: CCCCn1c([Se]c2cc(C)cc(C)c2)c(C(C)C)c(=O)[nH]c1=O [Compound 83]
Output line: 2 nM

Input line: Respond only with IC50 recorded for CCOCn1c([Se]c2cccc(C)c2)c(CC)c(=O)[nH]c1=S [Compound 16]
Output line: 8 nM

Input line: Dear colleague, please send me the reported IC50 for Cc1cccc([Se]c2c(C(C)C)c(=O)[nH]c(=S)n2COCc2ccccc2)c1 [Compound 27] when you can.
Output line: 1.1 nM

Input line: Provide one value: measured IC50 of CCc1c([Se]c2cccc(C)c2)n(COCc2ccccc2)c(=S)[nH]c1=O [Compound 20]
Output line: 0.8 nM

Input line: Quote IC50 reported for CC(C)c1c([Se]c2ccccc2)n(COCc2ccccc2)c(=S)[nH]c1=O [Compound 26] please.
Output line: 0.7 nM

Input line: Quickly give me recorded IC50 for CCc1c([Se]c2cccc(C)c2)n(COCc2ccccc2)c(=O)[nH]c1=O [Compound 37]
Output line: 0.21 nM

Input line: Given Cc1cccc([Se]c2c(C(C)C)c(=O)[nH]c(=O)n2COCc2ccccc2)c1 [Compound 53] , respond with its IC50.
Output line: 0.07 nM

Input line: State, in one line, measured IC50 of CCOCn1c([Se]c2cccc(C)c2)c(C(C)C)c(=O)[nH]c1=S [Compound 23]
Output line: 3.6 nM

Input line: Find the measured IC50 of Cc1cc(C)cc([Se]c2c(C(C)C)c(=O)[nH]c(=S)n2COCc2ccccc2)c1 [Compound 28] and report it.
Output line: 5.4 nM

Input line: Determine from records and report IC50 for CCOCn1c([Se]c2cc(C)cc(C)c2)c(C(C)C)c(=O)[nH]c1=O [Compound 50]
Output line: 0.07 nM

Input line: Kindly indicate its recorded IC50. Item: CCc1c([Se]c2cc(C)cc(C)c2)n(COCCO)c(=O)[nH]c1=O [Compound 9]
Output line: 15 nM

Input line: Write down IC50 measured for item CCc1c([Se]c2cc(C)cc(C)c2)n(COCCO)c(=S)[nH]c1=O [Compound 3]
Output line: 30 nM

Input line: Annotate the compound CCOCn1c([Se]c2cc(F)cc(F)c2)c(CC)c(=O)[nH]c1=O [Compound 32] with its measured IC50.
Output line: 6 nM

Input line: Quick one: give measured IC50 for CCOCn1c([Se]c2ccccc2)c(C(C)C)c(=O)[nH]c1=O [Compound 48]
Output line: 4.2 nM

Input line: Entry CCc1c([Se]c2ccccc2)n(COCc2ccccc2)c(=S)[nH]c1=O [Compound 19] needs its IC50 filled in; supply it.
Output line: 4 nM

Input line: Let me know recorded IC50 for Cc1cccc([Se]c2c(C(C)C)c(=O)[nH]c(=S)n2COCCO)c1 [Compound 5] , thanks.
Output line: 38 nM

Input line: Check the records and state IC50 for CCOCn1c([Se]c2ccccc2)c(C(C)C)c(=O)[nH]c1=S [Compound 22]
Output line: 1.5 nM

Input line: Look up IC50 of Cc1cccc([Se]c2c(C(C)C)c(=O)[nH]c(=O)n2COCCO)c1 [Compound 11] and report it.
Output line: 15 nM

Input line: Specify measured IC50 for CCc1c([Se]c2cc(C)cc(C)c2)n(COCc2ccccc2)c(=S)[nH]c1=O [Compound 21] .
Output line: 1.7 nM

Input line: Let me know recorded IC50 for CCOCn1c([Se]c2cc(F)cc(F)c2)c(C(C)C)c(=O)[nH]c1=O [Compound 51] , thanks.
Output line: 1.2 nM

Input line: # return recorded IC50 for input CCCCn1c([Se]c2cc(C)cc(C)c2)c(CC)c(=O)[nH]c1=O [Compound 65]
Output line: 3 nM

Input line: Provide IC50 value for the following compound: CCOCn1c([Se]c2cc(C)cc(C)c2)c(CC)c(=O)[nH]c1=O [Compound 30]
Output line: 0.6 nM

Input line: Recall and state the measured IC50 for CCOCn1c([Se]c2cc(C)cc(C)c2)c(CC)c(=O)[nH]c1=S [Compound 17] .
Output line: 8 nM

Input line: Specify reported IC50 for the compound shown: Cc1cc(C)cc([Se]c2c(C(C)C)c(=O)[nH]c(=O)n2CCCc2ccccc2)c1 [Compound 86]
Output line: 0.6 nM

Input line: Indicate its recorded IC50; the compound in question is CCCCn1c([Se]c2ccccc2)c(CC)c(=O)[nH]c1=O [Compound 64]
Output line: 40 nM

Input line: # return recorded IC50 for input CCc1c([Se]c2cccc(C)c2)n(COCCO)c(=S)[nH]c1=O [Compound 2]
Output line: 40 nM

Input line: Input Cc1cn([C@H]2C[C@H](N=[N+]=[N-])[C@@H](CO)O2)c(=O)[nH]c1=O [AZT, 3'-Deoxy-3'-azidothymidine, reference compound] , output reported IC50.
Output line: 4.6 nM

Input line: Assign IC50 to the following record: CCOCn1c([Se]c2cc(C)cc(C)c2)c(C(C)C)c(=O)[nH]c1=S [Compound 24]
Output line: 1.6 nM

Input line: Report IC50 for CCOCn1c([Se]c2cccc(C)c2)c(CC)c(=O)[nH]c1=O [Compound 29]
Output line: 4 nM

Input line: Read the entry CCOCn1c([Se]c2cccc(C)c2)c(C(C)C)c(=O)[nH]c1=O [Compound 49] and write its reported IC50.
Output line: 0.7 nM

Input line: For the compound CCCCn1c([Se]c2ccccc2)c(C(C)C)c(=O)[nH]c1=O [Compound 81] , give its measured IC50 value.
Output line: 2 nM

Input line: Supply recorded IC50 for CC(C)c1c([Se]c2ccccc2)n(CCCc2ccccc2)c(=O)[nH]c1=O [Compound 84] here.
Output line: 8 nM

Input line: Answer with the recorded IC50 of CCOCn1c([Se]c2cc(F)cc(F)c2)c(C(C)C)c(=O)[nH]c1=S [Compound 25] only.
Output line: 27 nM

Input line: Give IC50 for CC(C)c1c([Se]c2ccccc2)n(COCc2ccccc2)c(=O)[nH]c1=O [Compound 52]
Output line: 0.1 nM

----------
Provide the reported IC50 of each item.
# Tested on: HIV-1 (HTLV-IIIB strain)
# ASSAY_DETAILS: Inhibitory activity for HIV-induced cytopathogenicity (MT-4 cells, MTT method)
# Format: cell-based
# TEST_SETTINGS: Human immunodeficiency virus 1, IIIB, MT4, 144 h, read-out: 50% inhibitory concentration of HIV infection
Supply the numeric figure in nM, leaving out any unit text.

Input line: Jot down IC50 (HIV-1 (HTLV-IIIB strain)) of CCOCn1c([Se]c2ccccc2)c(CC)c(=O)[nH]c1=S .
Output line: 24

Input line: Please report IC50 with HIV-1 (HTLV-IIIB strain) for item Cc1cc(C)cc([Se]c2c(C(C)C)c(=O)[nH]c(=O)n2COCCO)c1 .
Output line: 1.9

Input line: Give reported IC50 for CCc1c([Se]c2cc(C)cc(C)c2)n(CCCc2ccccc2)c(=O)[nH]c1=O (HIV-1 (HTLV-IIIB strain))
Output line: 8

Input line: Report its IC50 with HIV-1 (HTLV-IIIB strain) as the test system: Cc1cc(C)cc([Se]c2c(C(C)C)c(=O)[nH]c(=O)n2COCc2ccccc2)c1
Output line: 0.021

----------
Kindly supply the reported IC50 values for the records listed here.
# Test system: HIV-1 (HTLV-IIIB strain)
# ASSAY_DETAILS: Inhibitory activity for HIV-induced cytopathogenicity (MT-4 cells, MTT method)
# Type: cell-based
# TEST_SETTINGS: Human immunodeficiency virus 1, IIIB, MT4, 144 h, read-out: 50% inhibitory concentration of HIV infection
Numbers only; they are read as nM.

Input line: Output IC50 of CCc1c([Se]c2cc(C)cc(C)c2)n(COCc2ccccc2)c(=O)[nH]c1=O
Output line: 0.08

Input line: Output measured IC50 for this item: CCc1c([Se]c2ccccc2)n(CCCc2ccccc2)c(=O)[nH]c1=O
Output line: 3

Input line: Tell me IC50 reported for Cc1cc(C)cc([Se]c2c(C(C)C)c(=O)[nH]c(=S)n2COCCO)c1
Output line: 8

----------
# ASSAY_DETAILS: Cytotoxicity to MT-4 cells not infected with HIV (MTT method)
# Type: cell-based
# TEST_SETTINGS: human; MT-4 cells not infected with HIV, 6 days, 37° C., MTT; read-out: 50% cytotoxic concentration to MT-4 cells
# if measured CC50 at 144 h < 30 µM: Yes  # else: No

Input line: A record lists CCc1c([Se]c2ccccc2)n(CCCc2ccccc2)c(=O)[nH]c1=O [Compound 73] . Is its CC50 at 144 h below 30 µM?
Output line: Yes

Input line: CC50 at 144 h strictly < 30 µM for this molecule? CCc1c([Se]c2cccc(C)c2)n(COCc2ccccc2)c(=O)[nH]c1=O [Compound 37]
Output line: Yes

Input line: Strictly below 30 µM in CC50 at 144 h? CCOCn1c([Se]c2cc(C)cc(C)c2)c(C(C)C)c(=O)[nH]c1=S [Compound 24]
Output line: No

Input line: API: query returns whether the molecule falls strictly under 30 µM in CC50 at 144 h. Query: CCOCn1c([Se]c2cc(F)cc(F)c2)c(C(C)C)c(=O)[nH]c1=S [Compound 25]
Output line: Yes

Input line: Would you kindly verify if CC50 at 144 h of CCc1c([Se]c2cc(C)cc(C)c2)n(COCCO)c(=S)[nH]c1=O [Compound 3] is strictly less than 30 µM?
Output line: No

Input line: Input CCOCn1c([Se]c2cc(F)cc(F)c2)c(C(C)C)c(=O)[nH]c1=O [Compound 51] ; condition: CC50 at 144 h strictly below 30 µM. Does it hold?
Output line: Yes

Input line: Determine whether this molecule shows CC50 at 144 h lower than 30 µM (ties excluded): Cc1cn([C@H]2C[C@H](N=[N+]=[N-])[C@@H](CO)O2)c(=O)[nH]c1=O [AZT, 3'-Deoxy-3'-azidothymidine, reference compound]
Output line: Yes

Input line: Is the reported CC50 at 144 h for CCc1c([Se]c2cc(C)cc(C)c2)n(COCc2ccccc2)c(=S)[nH]c1=O [Compound 21] strictly below 30 µM?
Output line: Yes

Input line: Please indicate whether the reported CC50 at 144 h of CCc1c([Se]c2cc(C)cc(C)c2)n(COCCO)c(=O)[nH]c1=O [Compound 9] is strictly below 30 µM.
Output line: No

Input line: Is CC50 at 144 h of CCc1c([Se]c2cc(C)cc(C)c2)n(COCc2ccccc2)c(=O)[nH]c1=O [Compound 38] strictly below 30 µM?
Output line: No

Input line: Determine whether this molecule shows CC50 at 144 h lower than 30 µM (ties excluded): CCOCn1c([Se]c2cc(C)cc(C)c2)c(CC)c(=O)[nH]c1=S [Compound 17]
Output line: Yes

Input line: Criterion: CC50 at 144 h strictly below 30 µM. Is it met by CCCCn1c([Se]c2cc(C)cc(C)c2)c(C(C)C)c(=O)[nH]c1=O [Compound 83] ?
Output line: Yes

Input line: Item CCc1c([Se]c2ccccc2)n(COCc2ccccc2)c(=S)[nH]c1=O [Compound 19] : CC50 at 144 h beneath 30 µM, strictly?
Output line: Yes

Input line: Lab note: CC50 at 144 h threshold 30 µM. Does this molecule come in strictly under it? CCOCn1c([Se]c2cccc(C)c2)c(CC)c(=O)[nH]c1=O [Compound 29]
Output line: No

Input line: Quick check: does CCOCn1c([Se]c2ccccc2)c(CC)c(=O)[nH]c1=S [Compound 15] have CC50 at 144 h under 30 µM?
Output line: Yes

Input line: For this molecule, is CC50 at 144 h lower than 30 µM? CC(C)c1c([Se]c2ccccc2)n(CCCc2ccccc2)c(=O)[nH]c1=O [Compound 84]
Output line: Yes

Input line: Given CCc1c([Se]c2cccc(C)c2)n(COCc2ccccc2)c(=S)[nH]c1=O [Compound 20] , is recorded CC50 at 144 h strictly lower than 30 µM?
Output line: No

Input line: Please indicate whether the reported CC50 at 144 h of Cc1cccc([Se]c2c(C(C)C)c(=O)[nH]c(=S)n2COCCO)c1 [Compound 5] is strictly below 30 µM.
Output line: No

Input line: Answer whether the molecule Cc1cc(C)cc([Se]c2c(C(C)C)c(=O)[nH]c(=O)n2CCCc2ccccc2)c1 [Compound 86] has CC50 at 144 h strictly less than 30 µM
Output line: Yes

Input line: Take the molecule Cc1cc(C)cc([Se]c2c(C(C)C)c(=O)[nH]c(=S)n2COCCO)c1 [Compound 6] and say whether its CC50 at 144 h is less than 30 µM.
Output line: No

Input line: Lab log: compare recorded CC50 at 144 h with 30 µM; is it strictly lower for CCCCn1c([Se]c2ccccc2)c(CC)c(=O)[nH]c1=O [Compound 64] ?
Output line: Yes

Input line: Dear colleague, could you confirm whether CC50 at 144 h of CCOCn1c([Se]c2cccc(C)c2)c(CC)c(=O)[nH]c1=S [Compound 16] falls below 30 µM? Thanks.
Output line: Yes

Input line: In plain terms, does CCCCn1c([Se]c2cc(C)cc(C)c2)c(CC)c(=O)[nH]c1=O [Compound 65] come in under 30 µM for CC50 at 144 h?
Output line: Yes

Input line: Say whether its CC50 at 144 h is strictly beneath 30 µM. Entry: CCOCn1c([Se]c2cc(F)cc(F)c2)c(CC)c(=O)[nH]c1=S [Compound 18]
Output line: Yes

Input line: I wonder whether CCOCn1c([Se]c2ccccc2)c(C(C)C)c(=O)[nH]c1=O [Compound 48] has CC50 at 144 h below 30 µM. Can you tell?
Output line: No
